All values here come from ChEMBL document CHEMBL5512603.

I'd be grateful if you could share measured pEC50 for these entries.
- test-target: Protein cereblon/Replicase polyprotein 1ab (Severe acute respiratory syndrome coronavirus 2, UniProt P0DTD1+Q96SW2)
- Sequence (Q96SW2 whole entry, other chains not shown): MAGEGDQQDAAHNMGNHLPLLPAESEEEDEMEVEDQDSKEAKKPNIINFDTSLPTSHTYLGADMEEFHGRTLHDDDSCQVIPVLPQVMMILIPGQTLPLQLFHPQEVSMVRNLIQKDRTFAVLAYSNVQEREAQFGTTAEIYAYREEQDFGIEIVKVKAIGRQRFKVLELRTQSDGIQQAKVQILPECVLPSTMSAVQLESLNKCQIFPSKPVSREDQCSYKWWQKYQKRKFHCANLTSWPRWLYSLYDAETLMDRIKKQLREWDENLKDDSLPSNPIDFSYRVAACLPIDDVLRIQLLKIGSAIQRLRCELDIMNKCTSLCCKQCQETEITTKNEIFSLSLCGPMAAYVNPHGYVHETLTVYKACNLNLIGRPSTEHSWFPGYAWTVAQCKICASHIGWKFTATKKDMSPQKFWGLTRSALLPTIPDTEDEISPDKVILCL
- assay: PROTAC activity at SARS-CoV-2 Main protease/CRBN E3 ligase (unknown origin)
pEC50: −log10 of the molar value.

Inquiry: Give the measured pEC50 of Cn1cc2cc(/N=c3\[nH]c(=O)n(Cc4cn(CCCCCCCC(=O)Nc5cccc6c5C(=O)N(C5CCC(=O)NC5=O)C6=O)nn4)c(=O)n3Cc3cc(F)c(F)cc3F)c(Cl)cc2n1 (centres undefined) .
Reply text: < 7.00

Inquiry: Same question for Cn1cc2cc(/N=c3\[nH]c(=O)n(Cc4cn(CCCCCC(=O)Nc5cccc6c5C(=O)N(C5CCC(=O)NC5=O)C6=O)nn4)c(=O)n3Cc3cc(F)c(F)cc3F)c(Cl)cc2n1 (centres undefined) please.
Reply text: > 7.00

Inquiry: Lookup Cn1cc2cc(/N=c3\[nH]c(=O)n(Cc4cn(CCOCCOCC(=O)Nc5cccc6c5C(=O)N(C5CCC(=O)NC5=O)C6=O)nn4)c(=O)n3Cc3cc(F)c(F)cc3F)c(Cl)cc2n1 (centres undefined)
Reply text: > 7.00

Inquiry: Cool, now Cn1cc2cc(/N=c3\[nH]c(=O)n(Cc4cn(CCCCCC(=O)Nc5cccc6c5C(=O)N(C5CCC(=O)NC5=O)C6)nn4)c(=O)n3Cc3cc(F)c(F)cc3F)c(Cl)cc2n1 (centres undefined)
Reply text: > 7.00

Inquiry: Similarly, Cn1cc2cc(/N=c3\[nH]c(=O)n(Cc4cn(CCOCCOCC(=O)Nc5cccc6c5C(=O)N(C5CCC(=O)NC5=O)C6)nn4)c(=O)n3Cc3cc(F)c(F)cc3F)c(Cl)cc2n1 (centres undefined) ?
Reply text: > 7.00

Inquiry: Next compound up: Cn1cc2cc(/N=c3\[nH]c(=O)n(Cc4cn(CCCC(=O)Nc5cccc6c5C(=O)N(C5CCC(=O)NC5=O)C6=O)nn4)c(=O)n3Cc3cc(F)c(F)cc3F)c(Cl)cc2n1 (centres undefined)
Reply text: > 7.00

Inquiry: And the next one, Cn1cc2cc(/N=c3\[nH]c(=O)n(Cc4cn(CCCCCCC(=O)Nc5cccc6c5C(=O)N(C5CCC(=O)NC5=O)C6=O)nn4)c(=O)n3Cc3cc(F)c(F)cc3F)c(Cl)cc2n1 (centres undefined) ?
Reply text: < 7.00

Inquiry: What about Cn1cc2cc(/N=c3\[nH]c(=O)n(Cc4cn(CCCCCCC(=O)Nc5cccc6c5C(=O)N(C5CCC(=O)NC5=O)C6)nn4)c(=O)n3Cc3cc(F)c(F)cc3F)c(Cl)cc2n1 (centres undefined) ?
Reply text: > 7.00

Inquiry: Thanks! And Cn1cc2cc(/N=c3\[nH]c(=O)n(Cc4cn(CCCC(=O)Nc5cccc6c5C(=O)N(C5CCC(=O)NC5=O)C6)nn4)c(=O)n3Cc3cc(F)c(F)cc3F)c(Cl)cc2n1 (centres undefined) ?
Reply text: > 7.00

* * *

- System: SARS-CoV-2
- assay: Antiviral activity against SARS-CoV-2 infected in African green monkey Vero E6 cells assessed as inhibition of virus induced cytopathic effect by CellTiter-Glo luminescent cell viability assay
- Assay type: functional, organism-based
- study-conditions: Severe acute respiratory syndrome coronavirus 2, Vero C1008
endpoint-label: EC50

Inquiry: // returns reported EC50 for input N#C[C@@H]1C[C@]23CN1C(=O)[C@H](c1ccccc1)N(C(=O)C1CN(c4ccc(F)cc4)N=N1)CCCCCc1ccc(c2c1)NC3=O (stereo partly specified)
Reply text: > 1 µM

Inquiry: Query CC(C)[C@H]1C(=O)N2C[C@]3(C[C@H]2C#N)C(=O)Nc2ccc(cc23)CCCCCN1C(=O)C1CN(c2ccccc2)N=N1 (stereo partly specified) next
Reply text: < 0.1 µM

Inquiry: Could you do the same for CC(C)[C@H]1C(=O)N2C[C@]3(C[C@H]2C#N)C(=O)Nc2ccc(cc23)CCCCCN1C(=O)c1cc2ccc(C(F)(F)F)cc2[nH]1 , please?
Reply text: < 0.1 µM

Inquiry: Continue with CC(C)[C@H]1C(=O)N2C[C@]3(C[C@H]2C#N)C(=O)Nc2ccc(cc23)CCCCCN1C(=O)c1cc2c(F)cc(F)cc2[nH]1
Reply text: < 0.1 µM

Inquiry: Moving on to the next molecule: CC(C)[C@H]1C(=O)N2C[C@]3(C[C@H]2C#N)C(=O)Nc2ccc(cc23)CCCCCN1C(=O)c1cc2c(F)cc(F)c(F)c2[nH]1
Reply text: < 0.1 µM

Inquiry: Now the same for CCC[C@H]1C(=O)N2C[C@]3(C[C@H]2C#N)C(=O)Nc2ccc(cc23)CCCCCN1C(=O)c1cc2c(F)cc(F)c(F)c2[nH]1
Reply text: < 0.1 µM

* * *

- assay: Cytotoxicity against African green monkey Vero E6 cells
- Format: toxicity, cell-based, Vero C1008
- study-conditions: chlorocebus sabaeus
Hi there, I'd appreciate the recorded CC50 for every entry that follows.

Inquiry: Give the measured CC50 of CC(C)(C)c1ccc(N(C(=O)c2ccco2)[C@@H](C(=O)NC2CC2)c2cccnc2)cc1 .
Reply text: 52.8 µM

Inquiry: Would you mind doing C[C@H](NC(=O)[C@@H](c1cccnc1)N(C(=O)c1ccco1)c1ccc(-c2ccccc2)cc1)c1ccccc1 as well?
Reply text: > 200 µM

Inquiry: Now this one: C[C@H](NC(=O)[C@@H](c1cccnc1)N(C(=O)c1ccco1)c1ccc(-n2cccc2)cc1)c1ccccc1
Reply text: > 200 µM

Inquiry: Try CC(C)(C)NC(=O)[C@@H](c1cccnc1)N(C(=O)c1c[nH]cn1)c1ccc(C(C)(C)C)cc1 next.
Reply text: 129 µM

Inquiry: Next record, please: CC(C)(C)c1ccc(N(C(=O)c2ccco2)[C@@H](C(=O)NC2CCCC2)c2cccnc2)cc1
Reply text: 101 µM

Inquiry: Note, next up: CC(C)(C)NC(=O)[C@@H](c1cnccn1)N(C(=O)c1ccco1)c1ccc(-c2ccccc2)cc1
Reply text: > 200 µM

Inquiry: Could you do the same for CC(C)(C)c1ccc(N(C(=O)c2ccco2)[C@@H](C(=O)NC2CCCCC2)c2cccnc2)cc1 , please?
Reply text: 18.2 µM

Inquiry: Likewise for CC(C)(C)NC(=O)[C@@H](c1cccnc1)N(C(=O)c1cnco1)c1ccc(-c2ccccc2)cc1 ?
Reply text: 67 µM

Inquiry: What do we get for CC(C)(C)NC(=O)[C@@H](c1cccnc1)N(C(=O)c1ccno1)c1ccc(-c2ccccc2)cc1 ?
Reply text: > 200 µM

* * *

- test-target: Replicase polyprotein 1ab (Severe acute respiratory syndrome coronavirus 2, UniProt P0DTD1)
- assay: Inhibition of SARS-CoV-2 3CLp
For each of the molecules below, state its IC50.

Inquiry: Entry under review: Cn1cc2cc(/N=c3\[nH]c(=O)n(Cc4cn(CCCCCCCC(=O)Nc5cccc6c5C(=O)N(C5CCC(=O)NC5=O)C6)nn4)c(=O)n3Cc3cc(F)c(F)cc3F)c(Cl)cc2n1 (configuration not stated) . Reported IC50?
Reply text: > 100 nM

Inquiry: Query Cn1cc2cc(/N=c3\[nH]c(=O)n(Cc4cn(CCCC(=O)Nc5cccc6c5C(=O)N(C5CCC(=O)NC5=O)C6=O)nn4)c(=O)n3Cc3cc(F)c(F)cc3F)c(Cl)cc2n1 (configuration not stated) next
Reply text: < 100 nM

Inquiry: Another molecule: Cn1cc2cc(/N=c3\[nH]c(=O)n(Cc4cn(CCC(=O)Nc5cccc6c5C(=O)N(C5CCC(=O)NC5=O)C6=O)nn4)c(=O)n3Cc3cc(F)c(F)cc3F)c(Cl)cc2n1 (configuration not stated)
Reply text: > 100 nM

Inquiry: Do the same for Cn1cc2cc(/N=c3\[nH]c(=O)n(Cc4cn(CCOCC(=O)Nc5cccc6c5C(=O)N(C5CCC(=O)NC5=O)C6)nn4)c(=O)n3Cc3cc(F)c(F)cc3F)c(Cl)cc2n1 (configuration not stated) please
Reply text: > 100 nM

Inquiry: Quick one: Cn1cc2cc(/N=c3\[nH]c(=O)n(Cc4cn(CCCCCCC(=O)Nc5cccc6c5C(=O)N(C5CCC(=O)NC5=O)C6=O)nn4)c(=O)n3Cc3cc(F)c(F)cc3F)c(Cl)cc2n1 (configuration not stated)
Reply text: < 100 nM

Inquiry: Now give it for Cn1cc2cc(/N=c3\[nH]c(=O)n(Cc4cn(CCCCC(=O)Nc5cccc6c5C(=O)N(C5CCC(=O)NC5=O)C6=O)nn4)c(=O)n3Cc3cc(F)c(F)cc3F)c(Cl)cc2n1 (configuration not stated) too.
Reply text: < 100 nM

Inquiry: Similarly, Cn1cc2cc(/N=c3\[nH]c(=O)n(Cc4cn(CCCCCC(=O)Nc5cccc6c5C(=O)N(C5CCC(=O)NC5=O)C6=O)nn4)c(=O)n3Cc3cc(F)c(F)cc3F)c(Cl)cc2n1 (configuration not stated) ?
Reply text: < 100 nM

Inquiry: How about this molecule: Cn1cc2cc(/N=c3\[nH]c(=O)n(Cc4cn(CCCC(=O)Nc5cccc6c5C(=O)N(C5CCC(=O)NC5=O)C6)nn4)c(=O)n3Cc3cc(F)c(F)cc3F)c(Cl)cc2n1 (configuration not stated)
Reply text: > 100 nM

Inquiry: Proceed to Cn1cc2cc(/N=c3\[nH]c(=O)n(Cc4cn(CCOCCOCCOCC(=O)Nc5cccc6c5C(=O)N(C5CCC(=O)NC5=O)C6)nn4)c(=O)n3Cc3cc(F)c(F)cc3F)c(Cl)cc2n1 (configuration not stated)
Reply text: > 100 nM

Inquiry: // same read-out, input: Cn1cc2cc(/N=c3\[nH]c(=O)n(Cc4cn(CCOCCOCC(=O)Nc5cccc6c5C(=O)N(C5CCC(=O)NC5=O)C6=O)nn4)c(=O)n3Cc3cc(F)c(F)cc3F)c(Cl)cc2n1 (configuration not stated)
Reply text: < 100 nM

Inquiry: What would you report for Cn1cc2cc(/N=c3\[nH]c(=O)n(Cc4cn(CCCCCC(=O)Nc5cccc6c5C(=O)N(C5CCC(=O)NC5=O)C6)nn4)c(=O)n3Cc3cc(F)c(F)cc3F)c(Cl)cc2n1 (configuration not stated) ?
Reply text: < 100 nM

Inquiry: What do you get for Cn1cc2cc(/N=c3\[nH]c(=O)n(Cc4cn(CCCCCCCC(=O)Nc5cccc6c5C(=O)N(C5CCC(=O)NC5=O)C6=O)nn4)c(=O)n3Cc3cc(F)c(F)cc3F)c(Cl)cc2n1 (configuration not stated) ?
Reply text: > 100 nM
